assay_protocol: Oral bioavailability in Sprague-Dawley rat plasma at 6 mg/kg by UPLC-MS/MS analysis
Type: ADME, organism-based
assay_context: Sprague-Dawley, plasma
observable: bioavailability (%)

CC(c1cc2cc(-c3cnn(C)c3)cnc2cc1F)n1nnc2ncc(-c3ccc(C(N)=O)c(F)c3)nc21 (configuration not stated) = 8.2
CC(c1cc2cc(-c3cnn(C)c3)cnc2cc1F)n1nnc2ncc(-c3cnn(CCO)c3)nc21 (single isomer, unassigned; enantiomer 2) = 8.8

* * *

System: NCI-H1993
assay_protocol: Growth inhibition of human NCI-H1993 cells after 72 hrs by CCK-8 assay
Assay type: functional, cell-based
assay_context: Homo sapiens, NCI-H1993, 72 h
pIC50: −log10 of the molar value.
observable: pIC50

CC(c1c(F)cc2ncc(-c3cnn(C)c3)cc2c1F)n1nnc2ncc(-c3cnn(C)c3)nc21 (stereo not drawn) = 9.10

(P) CNC(=O)c1ccc(-c2cnc3nnn(C(C)c4ccc5ncc(-c6ccc(F)cc6)cc5c4)c3n2)cc1F (stereo not drawn)
(Q) CC(c1cc2cc(-c3cnn(C)c3)cnc2cc1F)n1nnc2ncc(-c3cnn(C)c3)nc21 (stereo not drawn)
[in] Would you let me know which has the greater pIC50 value, P or Q ? Reply briefly: the label of your chosen item.
[out] Q
(Q: 9.05, P: 8.38)

* * *

assay_protocol: Intrinsic clearance in rat liver microsomes assessed per mg protein at 1 uM preincubated for 5 mins followed by NADPH addition measured after 5 to 30 mins by LC-MS/MS analysis
Type: ADME, microsome
assay_context: read-out: CLH
observable: microsomal CLint at 1 µM (µL/min/mg)

Some solved cases for reference:
CNC(=O)c1ccc(-c2cnc3nnn(C(C)c4ccc5ncc(-c6ccc(F)cc6)cc5c4)c3n2)cc1F (stereo not given) = 57
CC(c1ccc2ncc(-c3cnn(C)c3)cc2c1)n1nnc2ncc(-c3ccc(C(N)=O)c(F)c3)nc21 (stereo not given) = 10
CC(c1cc2cc(-c3cnn(C)c3)cnc2cc1F)n1nnc2ncc(-c3cnn(C)c3)nc21 (stereo not given) = 34

(a) CC(c1c(F)cc2ncc(-c3cnn(C)c3)cc2c1F)n1nnc2ncc(-c3ccc(C(N)=O)c(F)c3)nc21 (stereo not given)
(b) CC(c1ccc2ncc(-c3cnn(C)c3)cc2c1)n1nnc2ncc(-c3ccncc3)nc21 (stereo not given)
[in] // pick min by microsomal CLint at 1 µM: a , b Reply briefly: the label of your chosen item.
[out] a

* * *

assay_protocol: Drug recovery in human liver microsomes at 1 uM measured after 30 mins by LC-MS/MS analysis
Assay type: ADME, microsome
assay_context: liver microsomes, read-out: Drug recovery
observable: remaining at 0.5 h, 1 µM (%)

CC(c1cc2cc(-c3cnn(C)c3)cnc2cc1F)n1nnc2ncc(-c3cnn(CCO)c3)nc21 (stereo in doubt; 14) = 95
CC(c1c(F)cc2ncc(-c3cnn(C)c3)cc2c1F)n1nnc2ncc(-c3cnn(CCO)c3)nc21 (stereo not drawn) = 98
CNC(=O)c1ccc(-c2cnc3nnn(C(C)c4cc5cc(-c6cnn(C)c6)cnc5cc4F)c3n2)cc1F (stereo not drawn) = 116
CC(c1cc2cc(-c3cnn(C)c3)cnc2cc1F)n1nnc2ncc(-c3ccc(C(N)=O)c(F)c3)nc21 (stereo not drawn) = 120
CC(c1ccc2ncc(-c3cnn(C)c3)cc2c1)n1nnc2ncc(-c3ccncc3)nc21 (stereo not drawn) = 104
CC(c1c(F)cc2ncc(-c3cnn(C)c3)cc2c1F)n1nnc2ncc(-c3cnn(C)c3)nc21 (stereo not drawn) = 91
C[C@@H](c1cc2cccnc2cc1F)n1cnc2ncc(-c3cnn(C)c3)nc21 = 92
CNC(=O)c1ccc(-c2cnc3nnn(C(C)c4ccc5ncc(-c6ccc(F)cc6)cc5c4)c3n2)cc1F (stereo not drawn) = 104
CC(c1c(F)cc2ncc(-c3cnn(C)c3)cc2c1F)n1nnc2ncc(-c3ccncc3)nc21 (stereo not drawn) = 101
CC(c1ccc2ncc(-c3cnn(C)c3)cc2c1)n1nnc2ncc(-c3cnn(CCO)c3)nc21 (stereo not drawn) = 105
CC(c1cc2cc(-c3cnn(C)c3)cnc2cc1F)n1nnc2ncc(-c3cnn(C)c3)nc21 (stereo not drawn) = 101
CC(c1ccc2ncc(-c3cnn(C)c3)cc2c1)n1nnc2ncc(-c3ccc(C(N)=O)c(F)c3)nc21 (stereo not drawn) = 120
CNC(=O)c1ccc(-c2cnc3nnn(C(C)c4c(F)cc5ncc(-c6cnn(C)c6)cc5c4F)c3n2)cc1F (stereo not drawn) = 92
CC(c1c(F)cc2ncc(-c3cnn(C)c3)cc2c1F)n1nnc2ncc(-c3ccc(C(N)=O)c(F)c3)nc21 (stereo not drawn) = 97
CC(c1cc2cc(-c3cnn(C)c3)cnc2cc1F)n1nnc2ncc(-c3ccncc3)nc21 (stereo not drawn) = 113
CC(c1ccc2ncc(-c3ccc(F)cc3)cc2c1)n1nnc2ncc(-c3ccncc3)nc21 (stereo not drawn) = 105
CC(c1ccc2ncc(-c3ccc(F)cc3)cc2c1)n1nnc2ncc(-c3cnn(C)c3)nc21 (stereo not drawn) = 105
CNC(=O)c1ccc(-c2cnc3nnn(C(C)c4ccc5ncc(-c6cnn(C)c6)cc5c4)c3n2)cc1F (stereo not drawn) = 115
